assay: physchem; conditions: pH 7.4 buffer
// Criterion not met strictly below 100 µM in solubility thermodynamic; Criterion met otherwise

>>> category_label("CN(C)CCCNS(=O)(=O)c1ccc(Nc2nccc(-c3cnc4cccnn34)n2)cc1")
"Criterion met"
>>> category_label("COc1cccc(NC(=O)Cn2cc(Oc3ncnc4cc(OC)c(OC)cc34)cn2)c1")
"Criterion not met"
>>> category_label("CS(=O)(=O)C1(c2cc(N3CCOCC3)nc(-c3ccccc3)n2)CC1")
"Criterion not met"
>>> category_label("COc1ccc(C(=O)C2CCN(C(=O)c3ccc(F)cc3)CC2)cc1")
"Criterion met"
>>> category_label("CSc1nc(N)n2nc(-c3ccco3)nc2n1")
"Criterion met"
>>> category_label("CCCSc1nc(N[C@@H]2C[C@H]2c2ccccc2)c2nnn([C@@H]3C[C@H](OCCO)[C@@H](O)[C@H]3O)c2n1")
"Criterion not met"
>>> category_label("C[C@H](COc1cccc2ncnc(Nc3ccc(OCc4ccccn4)c(Cl)c3)c12)N(C)C(=O)CO")
"Criterion not met"
>>> category_label("Cc1cc(Oc2ccnc(Nc3ccc(S(N)(=O)=O)cc3)c2)c(-c2ccccn2)nc1C")
"Criterion not met"
>>> category_label("O=C(NCc1ccc(C(=O)NO)cc1)OCc1cccnc1")
"Criterion met"
>>> category_label("CCOC(=O)c1ccc(OCC2CN(c3ccc(C)nn3)C2)cc1")
"Criterion met"
>>> category_label("CC(C)N1C(=O)[C@H](NC(=O)[C@@H](Cc2ccccc2OC(F)(F)F)NC(=O)OC(C)(C)C)CCc2ccccc21")
"Criterion not met"
>>> category_label("O=C(Nc1ccc(Cl)c(Cl)c1)N1CCN(C[C@@H]2CCCN(CCCc3ccccc3)C2)CC1")
"Criterion met"
>>> category_label("CCCNC(=O)Nc1ccc(Oc2ncnc3cc(OC)c(OC)cc23)cc1Cl")
"Criterion not met"
>>> category_label("COCCOCCOc1ccc(-c2cc(C(N)=O)c(NC(N)=O)s2)cc1")
"Criterion not met"
>>> category_label("CN1CCC(Oc2cc(OCCF)cc3ncnc(Nc4c(Cl)ccc5c4OCO5)c23)CC1")
"Criterion met"
>>> category_label("COc1ccc(-c2cnn(C3CCS(=O)(=O)C3)c2N)cc1 (configuration not stated)")
"Criterion not met"
>>> category_label("O=C(CO)N1CCC(c2[nH]nc(-c3ccc(Cl)cc3F)c2-c2ccncn2)CC1")
"Criterion not met"
>>> category_label("COc1ccc(CC(=O)N(C)C2CCN(CCC(c3ccccc3)c3ccccc3)CC2)cc1OC")
"Criterion met"
>>> category_label("CN(C)CC(O)COc1ccc(Nc2nccc(Nc3ccccc3C#N)n2)cc1 (configuration not stated)")
"Criterion met"
>>> category_label("O=C(CCCN1CCC(O)(c2ccc(Cl)cc2)CC1)c1ccc(F)cc1")
"Criterion not met"
>>> category_label("COCCN(c1ccnc(Nc2cc(N3CCOCC3)cc(N3CCOCC3)c2)n1)c1cc(CO)ccc1C")
"Criterion met"
>>> category_label("O=C(/C=C/Sc1nc[nH]n1)c1ccc(Cl)cc1")
"Criterion not met"
>>> category_label("CN(C(=O)Cc1ccc(S(C)(=O)=O)cc1F)C1CCN(Cc2ccc(C(F)(F)F)cc2)CC1")
"Criterion not met"
>>> category_label("Cc1ccc(Oc2ccc(Nc3ncnc4cccc(O[C@H](C)C(=O)N5CCOCC5)c34)cc2C)cn1")
"Criterion not met"
>>> category_label("Cc1cc(CN2CCc3ccccc3C2C(=O)Nc2ccc(Cl)cc2Cl)ccc1OCC(=O)O (configuration not stated)")
"Criterion met"
>>> category_label("Cc1cc(Nc2ncnc3[nH]nc(OCCN4CCC(O)CC4)c23)ccc1OCc1cccc(F)c1")
"Criterion not met"
>>> category_label("COc1cc2ncnc(Nc3cccc(Cl)c3F)c2cc1CN(C(C)C)[C@@H](C)C(N)=O")
"Criterion not met"
>>> category_label("Nc1nnc(Cc2ccccc2)s1")
"Criterion met"
>>> category_label("O=c1n(CCCN2CCN(c3cccc(Cl)c3)CC2)nc2ccccn12")
"Criterion met"
>>> category_label("O=C(NCc1ccncc1)c1ccc(Oc2ccc(C#C[C@]3(O)CN4CCC3CC4)cc2)cc1")
"Criterion met"
>>> category_label("Cc1ccc(Oc2ccc(Nc3ncnc4cccc(O[C@@H](C)C(=O)N5CCOCC5)c34)cc2C)cn1")
"Criterion not met"
>>> category_label("CN1CCN(CCCOc2cc(OC3CCOCC3)c3c(Nc4ccc(F)c(Cl)c4)ncnc3c2)CC1")
"Criterion not met"
>>> category_label("O=C(Nc1ccccc1)Nc1cnns1")
"Criterion met"
>>> category_label("COc1cc2ncnc(Nc3cccc(Cl)c3F)c2cc1CN1CCCC[C@@H]1C(N)=O")
"Criterion not met"
>>> category_label("Cc1nc(C)c(-c2ccc(C34CCC(CC(=O)O)(CC3)CC4)cc2)nc1C(N)=O")
"Criterion met"
>>> category_label("Cc1nc2nc(-c3cccnc3)nn2c(O)c1Cc1ccccc1")
"Criterion not met"
>>> category_label("O=C(NC1CCCS(=O)(=O)C1)c1ccc(Oc2ccc(C#C[C@]3(O)CN4CCC3CC4)cc2)cc1 (some centres not stated)")
"Criterion met"

* * *

test: in vitro; conditions: human, liver microsomes
Measured Property: microsomal CLint

>>> recorded_value("O=C(NS(=O)(=O)c1ccccc1)N1CCC(N2CCC(Oc3ccc(Cl)c(Cl)c3)CC2)CC1")
"< 3 µL/min/mg"
>>> recorded_value("CC1(CCCc2cc(=O)oc3[nH]c(=O)[nH]c(=O)c23)CC1 [SCH-900271]")
"< 3 µL/min/mg"
>>> recorded_value("CCN(C(=O)Cc1ccc(S(C)(=O)=O)cc1)C1CCN(CCC(c2ccccc2)c2ccc(NS(C)(=O)=O)cc2)CC1 (stereo not drawn)")
"< 3 µL/min/mg"

* * *

test: in vitro; details: hepatocytes
The entries below come with measured hepatocyte CLint values attached.
Measured Property: hepatocyte CLint (µL/min/1e6 cells)

>>> recorded_value("Clc1ccc2ncc(-c3cccc(NC4CNC4)n3)n2c1")
19.1
>>> recorded_value("CCC(CC)NC(=O)c1nnn(-c2ccccc2)c1NS(=O)(=O)c1ccc(C)cc1")
56
>>> recorded_value("c1ccc([C@H]([C@@H](c2ccccc2)N2CCCCC2)N2CCCCC2)cc1")
12
>>> recorded_value("Cc1ncc2n1-c1ccc(Cl)cc1C(c1ccccc1F)=NC2")
121
>>> recorded_value("CC(C)S(=O)(=O)c1ccc(-c2cnc(N)c(C(=O)Nc3ccccc3)n2)cc1")
20.9
>>> recorded_value("N#Cc1cnc(N2CCN(C(=O)[C@@H]3CCCC[C@H]3C(=O)NC3(C#N)CC3)CC2)s1")
5.25

* * *

test: physchem; conditions: octan-1-ol/water, pH 7.4, LogD7.4
# Lookup of reported logD keyed by entry
Measured Property: logD

>>> recorded_value("COc1ccc(S(=O)(=O)Nc2ccc(-c3ccccc3)n(CC(=O)NC(C(=O)C(F)(F)F)C(C)C)c2=O)cc1 (stereo unspecified)")
2.5
>>> recorded_value("Cc1nc(CSc2nc(N[C@H](C)CO)c3sc(=O)[nH]c3n2)cs1")
1.73
>>> recorded_value("Cn1c(=N)n(CC(=O)c2ccc(Cl)cc2)c2ccccc21")
1.63
>>> recorded_value("O=C1COC2(CCN(S(=O)(=O)c3ccc(-c4ccc5cccnc5c4)cc3)CC2)CN1C1CC1")
3.24
>>> recorded_value("CC(C)[C@H](NC(=O)C[C@H](NC(=O)/C=C/c1ccccc1)c1ccccc1)C(=O)[C@@H]1C(=O)NC(=O)[C@H]1C")
1.91
>>> recorded_value("COCCC(=O)NC(C)c1ccc(Nc2ncc3cc(-c4ccncc4)ccc3n2)cc1 (stereo unspecified)")
2.98
>>> recorded_value("CC(O)(C(=O)Nc1ccc(S(=O)(=O)c2ccncc2)cc1)C(F)(F)F (stereo unspecified)")
2.15
>>> recorded_value("O=C(O)[C@@H](c1ccccc1)N1CCC(CN2CCC(Oc3ccc(Cl)c(Cl)c3)CC2)CC1")
2.14
>>> recorded_value("COc1cccc(Nc2nnc(C(=O)Nc3ccc(N4CCOCC4)nc3)o2)c1")
2.8
>>> recorded_value("CC(C)c1ccccc1Cc1cc(C(=O)Nc2ccc(S(=O)(=O)c3ccccc3C(C)(C)C)cc2)c(O)c(O)c1O")
3.44
>>> recorded_value("CC(C)(C)c1ccc(C(O)CCCN2CCC(C(O)(c3ccccc3)c3ccccc3)CC2)cc1 (stereo unspecified)")
3.99
>>> recorded_value("c1cnc2cccnc2c1")
0.89
>>> recorded_value("CC[C@H](NC(=O)c1c(CN(C)C)c(-c2ccccc2)nc2ccccc12)c1ccccc1")
4.18
>>> recorded_value("O=C(Nc1cccc(-c2nnn[nH]2)c1)c1cc(C(F)(F)F)cc2[nH]cnc12")
1.1
>>> recorded_value("O=c1ccoc2ccccc12")
1.4
>>> recorded_value("NC(=O)c1cnc(N[C@H]2CCCNC2)c2cc(-c3ccc(Cl)cc3)sc12")
2.78
>>> recorded_value("N#Cc1cnn(-c2ccccc2)c1NC(=O)CN1CCOCC1")
0.5
>>> recorded_value("CCN1CCC[C@@H](CN2CCN(C(=O)Nc3ccc(Cl)c(Cl)c3)CC2)C1")
1.94
>>> recorded_value("CC(C)C(=O)Nc1nc(-c2ccccn2)cc2ccccc12")
2.7
>>> recorded_value("CC[C@H](NC(=O)c1c([S+](C)[O-])c(-c2cccc(F)c2)nc2ccccc12)c1ccccc1 (stereo partly specified)")
3.14
>>> recorded_value("CNc1ccc2ncc(-c3cccc(O)c3)n2n1")
2.99
>>> recorded_value("O=c1cc(-c2ccc(O)cc2)[nH]c2ccccc12")
2.34
>>> recorded_value("COc1cc(Nc2cc(Nc3c(Cl)ccc4c3OCO4)ncn2)cc(OC)c1OC")
3.07
>>> recorded_value("CCCCc1nc2c(N)nc3ccccc3c2n1CC(C)C")
3.82
>>> recorded_value("O=C(CSc1ccccc1)N1CCN(c2ccccc2)CC1")
3.2
>>> recorded_value("COc1cc2c(Nc3c(Cl)ccc4c3OCO4)ncnc2cc1OCCCN1CCCC1")
1.62
>>> recorded_value("Nc1n[nH]c2ccccc12")
1
>>> recorded_value("Cn1c(N)nc(CCc2ccc3ccccc3c2)cc1=O")
2.7
>>> recorded_value("Cc1ccc2c(c1)c(-c1ccnc3ccc(C(F)(F)F)cc13)c(C)n2CC(=O)O")
1.78
>>> recorded_value("O=C(NS(=O)(=O)c1ccccc1)N1CCC(N2CCC(Oc3ccc(Cl)c(Cl)c3)CC2)CC1")
1.5
>>> recorded_value("COc1cc(F)ccc1-c1cc(CNC2CCCC2)ccn1")
1.71
>>> recorded_value("O=C1c2ccc(O)cc2C(=O)N1c1ccccc1")
2.3
>>> recorded_value("CCCSc1ncccc1C(=O)N(C)[C@@H]1[C@@H]2CC3C[C@H]1C[C@@](O)(C3)C2")
2.49
>>> recorded_value("Cc1cc(NC(=O)Nc2ccc(Cl)cc2)n(C)n1")
2.96
>>> recorded_value("N[C@@H](Cc1c[nH]c2ccccc12)C(=O)O")
-1.08
>>> recorded_value("N#Cc1cc(O)cc2nc(-c3ccc(O)cc3)oc12")
3.6
